- Tested on: CCRIS mutagenicity, Ames/micronucleus/aberration tests
- Method Notes: CCRIS mutagenicity studies
- Setup Conditions: Test System: AMES SALMONELLA TYPHIMURIUM; Strain/Indicator: TA98; Metabolic Activation: NONE; Method: PREINCUBATION
Active and inactive are the calls of the source. No rule for the calls is given here.
Hi there, use one of these labels in your reply, thanks! active, inactive

Below are worked cases with known answers.
CC(=O)Oc1cc([N+](=O)[O-])c2ccc3cccc4ccc1c2c43 ... active
O=C(O)Cc1ccccc1[N+](=O)[O-] ... inactive

(Q) Hi team, can someone confirm the assay call for COC(=O)C1=C(C)NC(C)=C(C(=O)OCC(C)=O)C1c1ccccc1[N+](=O)[O-] (stereo unspecified) ?
(A) inactive

(Q) Thanks! And "CCN(CC)CCCN(c1ccccc1)C1Cc2ccccc2C1" ?
(A) inactive

(Q) Thanks! And "Brc1c(Br)c(Br)c(Br)c(Br)c1Br" ?
(A) inactive

(Q) Thanks! And "CCCCOc1ccc(C=Nc2ccc(CC)cc2)cc1" ?
(A) inactive

(Q) Thanks! And "CN[C@@H]1[C@@H](O)[C@@H](O[C@@H]2[C@@H](O)[C@H](O[C@H]3O[C@H](CN)[C@@H](O)[C@H](O)[C@H]3O)[C@@H](N)C[C@H]2NC(=O)[C@@H](O)CN)OC[C@]1(C)O" ?
(A) inactive

(Q) Thanks! And "CSC(C)(C)C(=O)N[C@@H](CS)C(=O)O" ?
(A) inactive
